test system: SK-MEL-28; assay: NCI tumour cell line growth inhibition, 48 h
Calls of active or inactive are those of the source. Rule as the data show it: active = GI50 up to about 1.1 µM and inactive = higher.
Outcomes: active, inactive

{"compound": "O=C1CCCCC/C1=C\\c1ccccc1", "class": "inactive"}
{"compound": "CC1CC(Nc2ccc(Br)cc2)N(C(=O)c2ccc(Br)cc2)O1 (stereo not drawn)", "class": "inactive"}
{"compound": "COc1cc(/C=C2/CCS(=O)(=O)c3ccc(C)cc3C2=O)cc(OC)c1OC", "class": "inactive"}
{"compound": "C/C(=C\\c1ccc(Cl)cc1)C(C)(C)C(=O)O", "class": "inactive"}
{"compound": "O=C(Nc1ccc(C2=NCCN2)cc1)c1cncc(C(=O)Nc2ccc(C3=NCCN3)cc2)c1", "class": "inactive"}
{"compound": "COc1cc2c(cc1OC)-c1c(cc(OC)c(OC)c1OC)C2=O", "class": "inactive"}
{"compound": "NC(CCSCC(F)F)C(=O)O (stereo not drawn)", "class": "inactive"}
{"compound": "Cn1ncc2c(NCCc3ccccc3)nc(Cl)nc21", "class": "inactive"}
{"compound": "Cn1c(CCC#N)nc2ccc(Br)cc2c1=O", "class": "inactive"}
{"compound": "COc1cc2c3c(c1O)C1(C=CC(=O)C=C1)CC3N(C)CC2 (stereo not drawn)", "class": "inactive"}
{"compound": "Oc1cccc2cc(Br)cnc12", "class": "inactive"}
{"compound": "CCCNCc1nc2ccc(Br)cc2c(=O)n1CCC", "class": "inactive"}
{"compound": "O=C(O)c1ccc(Nc2nc3cc(C(F)(F)F)ccc3nc2-c2ccccc2)cc1", "class": "inactive"}
{"compound": "CC1(C)C=Cc2c(cc(O)c3c(=O)c4cc(Cl)ccc4[nH]c23)O1", "class": "inactive"}
{"compound": "OC1CCC(C2C3CCCCC3C3CCCCC3C2C2CCC(O)CC2)CC1 (stereo not drawn)", "class": "inactive"}
{"compound": "O=C(O)CCCCCCCCC(=O)O", "class": "inactive"}
{"compound": "O=C(NC(Cc1c[nH]cn1)C(=O)N1CCCC1)C1CCCC1 (stereo not drawn)", "class": "inactive"}
{"compound": "CC(C)CCC1CC2C(=O)N(c3ccccc3)C(=O)C2c2[nH]c3ccccc3c21 (stereo not drawn)", "class": "inactive"}
{"compound": "O=[N+]([O-])/C(C(Cl)=C(Cl)Cl)=C(/Cl)SCc1ccccc1", "class": "inactive"}
{"compound": "CN1C[C@H]2[C@@H](C1=O)[C@H](c1ccccc1)ON2C", "class": "inactive"}
{"compound": "CCCC(=O)OC[n+]1ccc2c(C)c3[nH]c4ccc(OC)cc4c3c(C)c2c1", "class": "active"}
{"compound": "O=C(O)CCSC(=O)Nc1ccccc1", "class": "inactive"}
{"compound": "Cc1ccc2c(C3Cc4ccccc4N3C(=O)/C=C\\C(=O)O)c(C)[nH]c2c1 (stereo not drawn)", "class": "inactive"}
{"compound": "COc1cc(/C=C\\c2ccncc2)cc(OC)c1OC", "class": "inactive"}
{"compound": "COc1ccc(C=O)cc1Oc1ccc(C[C@H]2c3c(cc(OC)c4c3Oc3cc5c(cc3O4)CCN(C)C5=O)CCN2C)cc1", "class": "inactive"}
{"compound": "COc1ccc(N(C(=O)NCCO)c2ccccc2)cc1", "class": "inactive"}
{"compound": "COc1ccc(/N=N/c2c(-c3c(OC)cc4occc4c3OC)[nH]c(=O)c(C#N)c2C)cc1", "class": "inactive"}
{"compound": "Cc1nnc2sc(N/N=C/c3ccccc3)nn12", "class": "inactive"}
{"compound": "CCN(CC)c1ccc(/N=N/c2ccc([N+](=O)[O-])cc2OC(=O)/C=C/c2ccccc2)c(OC(=O)/C=C/c2ccccc2)c1", "class": "inactive"}
{"compound": "CC(C)OC(=O)c1ccc(CCC2=CC(=O)C=CC2=O)cc1", "class": "inactive"}
{"compound": "N=C(N)NCCCC(NC(=O)OCCCCn1ccc(N)nc1=O)C(=O)O (stereo not drawn)", "class": "inactive"}
{"compound": "CCCCn1c2c(n(CCCC)c1=S)-c1c(n(CCCC)c(=S)n1CCCC)SSSS2", "class": "inactive"}
{"compound": "C[C@@H](CC(O)C(O)C(C)(C)O)C1CCC23CC12CCC1[C@@]2(C)CCC(O)C(C)(C)C2CC(OC2OC(CO)C(O)C(O)C2O)[C@]13C (stereo partly drawn)", "class": "inactive"}
{"compound": "O=C1OC(c2ccco2)=N/C1=C\\c1cccc([N+](=O)[O-])c1", "class": "inactive"}
{"compound": "CCN(CC)C1C(=O)NC1C#Cc1ccccc1 (stereo not drawn)", "class": "inactive"}
{"compound": "CCCCCCCCC[C@@H]1C[C@H](O)[C@H](Cc2ccccc2)N1C(=O)OC(C)(C)C", "class": "inactive"}
{"compound": "c1ccc2sc(SSSc3nc4ccccc4s3)nc2c1", "class": "inactive"}
{"compound": "Cc1ccc(OC2CC(n3cnc4ncnc(Cl)c43)OC2Oc2ccc(C)cc2)cc1 (stereo not drawn)", "class": "inactive"}
{"compound": "CN1CCN(c2ncc3c(n2)sc2c(=O)n(-c4ccccc4)cnc23)CC1", "class": "inactive"}
{"compound": "O=[N+]([O-])c1cccc2nc3ccccc3c(NCCC[N+]3([O-])CCCCC3)c12", "class": "active"}
{"compound": "CCCN(CCC)C1CC(n2cc(C)c(=O)[nH]c2=O)OC1CO (stereo not drawn)", "class": "inactive"}
{"compound": "Cc1ccc(C)c(NC(=O)C(Cc2c[nH]c3ccccc23)NC(=O)OCc2ccccc2)c1 (stereo not drawn)", "class": "inactive"}
{"compound": "CC(=O)/N=C1/N(/C=C2\\C(=O)Oc3ccccc3C2=O)C(=O)/C(=C/c2ccc(Cl)cc2Cl)N1C", "class": "inactive"}
